Would you mind telling me the reported IC50 of each entry?
- target.under.test: wild-type p97 (p97^WT) (Homo sapiens, UniProt P55072)
- Construct: made in house
- Sequence (P55072 whole entry): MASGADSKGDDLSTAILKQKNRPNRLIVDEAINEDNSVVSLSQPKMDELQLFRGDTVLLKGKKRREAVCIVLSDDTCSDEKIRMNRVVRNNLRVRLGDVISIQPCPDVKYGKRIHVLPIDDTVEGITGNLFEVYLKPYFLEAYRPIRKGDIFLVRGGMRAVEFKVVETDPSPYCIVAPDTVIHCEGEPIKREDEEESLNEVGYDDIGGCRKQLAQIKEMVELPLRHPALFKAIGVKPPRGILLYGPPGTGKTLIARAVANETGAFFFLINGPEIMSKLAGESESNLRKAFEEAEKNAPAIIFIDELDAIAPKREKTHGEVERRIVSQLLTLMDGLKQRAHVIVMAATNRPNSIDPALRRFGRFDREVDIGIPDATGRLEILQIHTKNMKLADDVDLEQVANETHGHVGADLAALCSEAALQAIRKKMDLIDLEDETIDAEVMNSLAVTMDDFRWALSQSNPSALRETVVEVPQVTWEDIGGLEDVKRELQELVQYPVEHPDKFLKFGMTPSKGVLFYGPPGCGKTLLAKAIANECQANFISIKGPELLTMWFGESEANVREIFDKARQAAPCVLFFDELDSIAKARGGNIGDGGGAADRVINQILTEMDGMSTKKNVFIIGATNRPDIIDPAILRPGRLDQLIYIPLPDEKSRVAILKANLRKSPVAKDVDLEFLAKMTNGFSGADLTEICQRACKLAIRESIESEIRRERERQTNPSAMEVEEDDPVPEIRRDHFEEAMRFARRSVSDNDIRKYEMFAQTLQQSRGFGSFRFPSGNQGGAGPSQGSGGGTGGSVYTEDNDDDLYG
- assay.method.text: p97 ATPase activity (Biomol Green), wild-type p97
- Assay type: biochemical
- condition.details: 200 μM ATP; six replicates
Give bare numbers, in nM.

Previously resolved entries follow.
1. C[C@@H]1CN(C(=O)Cn2ncc(-c3cc(F)c(OCc4nnc(S[C@H]5C=CCCC5)n4-c4cccnc4)cc3F)n2)C[C@H](C)O1 :: 16
2. CCC(=O)NCC#Cc1cc(F)c(OCc2nnc(S[C@H]3C=CCCC3)n2-c2cccnc2)cc1F :: 15

Query molecule follows.
Input line: // IC50 lookup, key: CN1CCC(NC(=O)OCC#Cc2c(F)cc(OCc3nnc(S[C@H]4C=CCCC4)n3-c3cccnc3)cc2F)CC1
Output line: 15

* * *

Give measured % ATPase activity for each item. Keep answers brief.
- target.under.test: wild-type p97 (p97^WT) (Homo sapiens)
- Construct: made in house
- assay.method.text: p97 ATPase activity (Biomol Green), wild-type p97
- Assay type: biochemical
- condition.details: inhibitor 0.002716 µM
Give the value; after it, write the unit.

The cases that follow already have their % ATPase activity on record.
1. Cc1cc(OCc2nnc(SC3CCCC3)n2-c2cccnc2)ccc1-c1ccc(S(C)(=O)=O)cc1 [NMS-873, reference compound] :: 98%
2. CCC(=O)NCC#Cc1cc(F)c(OCc2nnc(S[C@H]3C=CCCC3)n2-c2cccnc2)cc1F :: 92%
3. CN1CCC(NC(=O)OCC#Cc2c(F)cc(OCc3nnc(S[C@H]4C=CCCC4)n3-c3cccnc3)cc2F)CC1 :: 90%

Input line: What value of measured % ATPase activity is listed for C[C@@H]1CN(C(=O)Cn2ncc(-c3cc(F)c(OCc4nnc(S[C@H]5C=CCCC5)n4-c4cccnc4)cc3F)n2)C[C@H](C)O1 ?
Output line: 90%

* * *

- Tested on: HCT116 p97K512N
- assay.method.text: Cellular viability, resistant HCT116 p97K512N
- Type: cell-based
- condition.details: Table S3, four replicates
quantity.measured: pIC50
Answers are plain numbers, as −log10 of the molar value.

Input line: Fill in: pIC50 of CC1CCCC(C)N1CCOc1cc([N+](=O)[O-])ccc1C#N (stereo not shown) is ___
Output line: 4.60

* * *

For each of the molecules below, state its IC50.
- target.under.test: p97^R155H (Homo sapiens, UniProt P55072, R155H)
- Construct: enabling us to acquire high-resolution biomolecular structures of full-length p97
- Sequence (P55072 whole entry R155H): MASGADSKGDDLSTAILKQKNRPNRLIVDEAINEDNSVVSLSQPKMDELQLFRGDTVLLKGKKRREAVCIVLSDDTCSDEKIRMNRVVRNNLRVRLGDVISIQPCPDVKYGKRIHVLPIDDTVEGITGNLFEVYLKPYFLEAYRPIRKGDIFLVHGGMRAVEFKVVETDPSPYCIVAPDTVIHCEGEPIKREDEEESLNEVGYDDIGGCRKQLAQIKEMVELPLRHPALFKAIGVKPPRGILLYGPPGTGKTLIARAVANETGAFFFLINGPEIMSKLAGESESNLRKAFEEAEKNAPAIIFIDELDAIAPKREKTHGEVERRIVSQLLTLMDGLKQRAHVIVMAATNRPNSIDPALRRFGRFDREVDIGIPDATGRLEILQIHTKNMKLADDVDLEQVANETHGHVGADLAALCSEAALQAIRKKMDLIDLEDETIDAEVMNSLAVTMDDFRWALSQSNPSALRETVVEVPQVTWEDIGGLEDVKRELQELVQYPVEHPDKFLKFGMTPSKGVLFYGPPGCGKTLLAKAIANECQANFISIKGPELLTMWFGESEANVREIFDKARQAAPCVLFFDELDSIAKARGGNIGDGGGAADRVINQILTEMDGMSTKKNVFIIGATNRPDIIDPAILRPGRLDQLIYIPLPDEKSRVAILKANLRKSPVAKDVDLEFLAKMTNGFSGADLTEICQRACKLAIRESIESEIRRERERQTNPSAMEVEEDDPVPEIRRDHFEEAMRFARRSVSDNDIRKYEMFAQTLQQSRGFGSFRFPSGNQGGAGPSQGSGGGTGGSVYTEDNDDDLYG
- assay.method.text: p97 ATPase activity (Biomol Green), R155H mutant
- condition.details: 200 μM ATP; six replicates
One number for each entry, in nM.

Some solved cases for reference:
1. CN1CCC(NC(=O)OCC#Cc2c(F)cc(OCc3nnc(S[C@H]4C=CCCC4)n3-c3cccnc3)cc2F)CC1 :: 11
2. C[C@@H]1CN(C(=O)Cn2ncc(-c3cc(F)c(OCc4nnc(S[C@H]5C=CCCC5)n4-c4cccnc4)cc3F)n2)C[C@H](C)O1 :: 15

As a next step, examine the molecule that follows.
Input line: Looking for the measured IC50 of CCC(=O)NCC#Cc1cc(F)c(OCc2nnc(S[C@H]3C=CCCC3)n2-c2cccnc2)cc1F , can you help?
Output line: 14

* * *

- target.under.test: wild-type p97 (p97^WT) (Homo sapiens)
- Construct: made in house
- assay.method.text: p97 ATPase activity (Biomol Green), wild-type p97
- Type: biochemical
- condition.details: inhibitor 0.024444 µM
quantity.measured: % ATPase activity
Please make sure the unit comes right after the number.

1. CCC(=O)NCC#Cc1cc(F)c(OCc2nnc(S[C@H]3C=CCCC3)n2-c2cccnc2)cc1F :: 32%

Give % ATPase activity for each listed item.
1. C[C@@H]1CN(C(=O)Cn2ncc(-c3cc(F)c(OCc4nnc(S[C@H]5C=CCCC5)n4-c4cccnc4)cc3F)n2)C[C@H](C)O1
2. Cc1cc(OCc2nnc(SC3CCCC3)n2-c2cccnc2)ccc1-c1ccc(S(C)(=O)=O)cc1 [NMS-873, reference compound]
3. CN1CCC(NC(=O)OCC#Cc2c(F)cc(OCc3nnc(S[C@H]4C=CCCC4)n3-c3cccnc3)cc2F)CC1

Output line:
1: 31%; 2: 55%; 3: 27%

* * *

- target.under.test: wild-type p97 (p97^WT) (Homo sapiens, UniProt P55072)
- Construct: made in house
- assay.method.text: p97 ATPase activity (Biomol Green), wild-type p97
- Format: biochemical
- condition.details: inhibitor 0.220000 µM
Would you mind telling me the reported % ATPase activity of each entry?
One number for each entry, in %.

Worked cases, % ATPase activity given:
1) C[C@@H]1CN(C(=O)Cn2ncc(-c3cc(F)c(OCc4nnc(S[C@H]5C=CCCC5)n4-c4cccnc4)cc3F)n2)C[C@H](C)O1 [NSC819701] :: 14
2) CN1CCC(NC(=O)OCC#Cc2c(F)cc(OCc3nnc(S[C@H]4C=CCCC4)n3-c3cccnc3)cc2F)CC1 [NSC799462] :: 16
3) Cc1cc(OCc2nnc(SC3CCCC3)n2-c2cccnc2)ccc1-c1ccc(S(C)(=O)=O)cc1 [NMS-873, reference compound] :: 14

Input line: // query % ATPase activity value for entry CCC(=O)NCC#Cc1cc(F)c(OCc2nnc(S[C@H]3C=CCCC3)n2-c2cccnc2)cc1F [NSC804515]
Output line: 12

* * *

I'd appreciate it if you could supply pIC50 values for the items below.
- target.under.test: p97^N616F (Homo sapiens, UniProt P55072, N616F)
- Sequence (P55072 whole entry N616F): as the sequence (P55072 whole entry R155H) above, with H155R, N616F counted along it
- assay.method.text: p97 ATPase activity (Biomol Green), N616F mutant
- condition.details: 200 μM ATP; six replicates
Answers are plain numbers, as −log10 of the molar value.

1. C[C@@H]1CN(C(=O)Cn2ncc(-c3cc(F)c(OCc4nnc(S[C@H]5C=CCCC5)n4-c4cccnc4)cc3F)n2)C[C@H](C)O1 [NSC819701] :: 5.27

# next molecule below
Input line: Notebook entry, p97^N616F (Homo sapiens, UniProt P55072, N616F) assay: pIC50 of CN1CCC(NC(=O)OCC#Cc2c(F)cc(OCc3nnc(S[C@H]4C=CCCC4)n3-c3cccnc3)cc2F)CC1 [NSC799462] = ?
Output line: 5.74

* * *

- target.under.test: wild-type p97 (p97^WT) (Homo sapiens, UniProt P55072)
- Construct: made in house
- assay.method.text: p97 ATPase activity (Biomol Green), wild-type p97
- Format: biochemical
- condition.details: inhibitor 0.000905 µM
quantity.measured: % ATPase activity (%)
Numbers only, in %.

Give % ATPase activity for all compounds that follow.
1. C[C@@H]1CN(C(=O)Cn2ncc(-c3cc(F)c(OCc4nnc(S[C@H]5C=CCCC5)n4-c4cccnc4)cc3F)n2)C[C@H](C)O1
2. Cc1cc(OCc2nnc(SC3CCCC3)n2-c2cccnc2)ccc1-c1ccc(S(C)(=O)=O)cc1 [NMS-873, reference compound]
3. CN1CCC(NC(=O)OCC#Cc2c(F)cc(OCc3nnc(S[C@H]4C=CCCC4)n3-c3cccnc3)cc2F)CC1
4. CCC(=O)NCC#Cc1cc(F)c(OCc2nnc(S[C@H]3C=CCCC3)n2-c2cccnc2)cc1F

Output line:
[102, 106, 98, 99]

* * *

- target.under.test: p97^F618S (Homo sapiens, UniProt P55072, F618S)
- Sequence (P55072 whole entry F618S): as the sequence (P55072 whole entry) above, with F618S counted along it
- assay.method.text: p97 ATPase activity (Biomol Green), F618S mutant
- condition.details: 200 μM ATP; six replicates
Please go through the items and note down their IC50.
Answers are plain numbers, in nM.

Some solved entries appear below for comparison.
1) CCC(=O)NCC#Cc1cc(F)c(OCc2nnc(S[C@H]3C=CCCC3)n2-c2cccnc2)cc1F :: 1750
2) C[C@@H]1CN(C(=O)Cn2ncc(-c3cc(F)c(OCc4nnc(S[C@H]5C=CCCC5)n4-c4cccnc4)cc3F)n2)C[C@H](C)O1 :: 1510

Input line: Consider the compound shown here: CN1CCC(NC(=O)OCC#Cc2c(F)cc(OCc3nnc(S[C@H]4C=CCCC4)n3-c3cccnc3)cc2F)CC1 What is its recorded IC50?
Output line: 460
